Recorded values, source ChEMBL document CHEMBL3244069.

- System: Rattus norvegicus
- ASSAY_METHOD_TEXT: Antidiuretic effect in Brattleboro rat assessed as maximal depressions of urine flow after single intravenous bolus injection
- Format: functional
Bridge positions count the residues as written; N and C are the ends. Square brackets hold non-standard residues; d marks the D form. Peptide text beside a SMILES is read from it. ΔPro = O=C(O)[C@@H]1C=CCN1; Mpa = O=C(O)CCS
Listed next: entries and their corresponding Activity.

# MOLECULE, QUANTITY_UNIT, Activity
rows = [
    ("N=C(N)NCCCC(NC(=O)[C@@H]1CCCN1C(=O)[C@@H]1CSSCCC(=O)N[C@@H](Cc2ccc(O)cc2)C(=O)N[C@@H](Cc2ccccc2)C(=O)N[C@@H](CCC(N)=O)C(=O)N[C@@H](CC(N)=O)C(=O)N1)C(=O)NCC(N)=O (single isomer, unassigned)", "U/mg", 1400),
    ("N=C(N)NCCC[C@H](NC(=O)[C@@H]1CCCN1C(=O)[C@@H]1CSSC[C@H](N)C(=O)N[C@@H](Cc2ccc(O)cc2)C(=O)N[C@@H](Cc2ccccc2)C(=O)N[C@@H](CCC(N)=O)C(=O)N[C@@H](CC(N)=O)C(=O)N1)C(=O)NCC(N)=O", "U/mg", 503),
    ("N=C(N)NCCC[C@H](NC(=O)[C@@H]1C=CCN1C(=O)[C@@H]1CSSCCC(=O)N[C@@H](Cc2ccccc2)C(=O)N[C@@H](Cc2ccccc2)C(=O)N[C@@H](CCC(N)=O)C(=O)N[C@@H](CC(N)=O)C(=O)N1)C(=O)NCC(N)=O ([Mpa]FFQNC[ΔPro]RG-NH2; disulfide 1-6)", "U/mg", 13000),
]

----------
- Test system: Rattus norvegicus
- ASSAY_METHOD_TEXT: Antidiuretic effect in Brattleboro rat assessed as maximal depressions of urine flow after single intravenous bolus injection
- Type: functional
Bridge positions count the residues as written; N and C are the ends. Square brackets hold non-standard residues; d marks the D form. Peptide text beside a SMILES is read from it. Mpa = O=C(O)CCS
Here the recorded Activity is given for each entry.
ENDPOINT_NAME: Activity (U/mg)

# COMPOUND, VALUE
records = [
    ("N=C(N)NCCC[C@H](NC(=O)[C@@H]1CCCN1C(=O)[C@@H]1CSSCCC(=O)N[C@@H](Cc2ccccc2)C(=O)N[C@@H](Cc2ccccc2)C(=O)N[C@@H](CCC(N)=O)C(=O)N[C@@H](CC(N)=O)C(=O)N1)C(=O)NCC(N)=O ([Mpa]FFQNCPRG-NH2; disulfide 1-6)", 810),
    ("N=C(N)NCCC[C@H](NC(=O)[C@@H]1C=CCN1C(=O)[C@@H]1CSSCCC(=O)N[C@@H](Cc2ccc(O)cc2)C(=O)N[C@@H](Cc2ccccc2)C(=O)N[C@@H](CCC(N)=O)C(=O)N[C@@H](CC(N)=O)C(=O)N1)C(=O)NCC(N)=O", 4134),
]

----------
- Tested on: Rattus norvegicus
- ASSAY_METHOD_TEXT: Induction in blood pressure in rat after single intravenous bolus injection
- Format: functional
Bridge positions count the residues as written; N and C are the ends. Square brackets hold non-standard residues; d marks the D form. Peptide text beside a SMILES is read from it. Mpa = O=C(O)CCS

# COMPOUND, Activity, U/mg
data = [
    ("N=C(N)NCCC[C@H](NC(=O)[C@@H]1CCCN1C(=O)[C@@H]1CSSCCC(=O)N[C@@H](Cc2ccccc2)C(=O)N[C@@H](Cc2ccccc2)C(=O)N[C@@H](CCC(N)=O)C(=O)N[C@@H](CC(N)=O)C(=O)N1)C(=O)NCC(N)=O ([Mpa]FFQNCPRG-NH2; disulfide 1-6)", 29),
    ("N=C(N)NCCC[C@H](NC(=O)[C@@H]1CCCN1C(=O)[C@@H]1CSSC[C@H](N)C(=O)N[C@@H](Cc2ccc(O)cc2)C(=O)N[C@@H](Cc2ccccc2)C(=O)N[C@@H](CCC(N)=O)C(=O)N[C@@H](CC(N)=O)C(=O)N1)C(=O)NCC(N)=O", 487),
    ("N=C(N)NCCC[C@H](NC(=O)[C@@H]1C=CCN1C(=O)[C@@H]1CSSCCC(=O)N[C@@H](Cc2ccc(O)cc2)C(=O)N[C@@H](Cc2ccccc2)C(=O)N[C@@H](CCC(N)=O)C(=O)N[C@@H](CC(N)=O)C(=O)N1)C(=O)NCC(N)=O", 240),
    ("N=C(N)NCCCC(NC(=O)[C@@H]1CCCN1C(=O)[C@@H]1CSSCCC(=O)N[C@@H](Cc2ccc(O)cc2)C(=O)N[C@@H](Cc2ccccc2)C(=O)N[C@@H](CCC(N)=O)C(=O)N[C@@H](CC(N)=O)C(=O)N1)C(=O)NCC(N)=O (single isomer, unassigned)", 395),
]
